Values from ChEMBL document CHEMBL5126632

assay: Stabilization of d(CGC GAA TTC GCG TIT CGC GAA TTC GCG) DNA hairpin (unknown origin) assessed as thermal stability by measuring difference in melting temperature t1/2 by circular dichroism spectroscopy (reference value: 75.4 +/- 0.2 degC)
measurement.kind: ΔTm
A complete answer gives the number followed by the unit.

Give its ΔTm value. Item: `Cc1ccc(-c2nc3n(ccc4nc(-c5ccc(C)cc5)c(/C=N/NC5=NCCN5)n43)c2/C=N/NC2=NCCN2)cc1`
2.4 °C

Same for `N=C(N)N/N=C/c1c(-c2ccsc2)nc2ccn3c(C=O)c(-c4ccsc4)nc3n12`
2.7 °C

Same for `Cc1ccc(-c2nc3n(ccc4nc(-c5ccccc5)c(/C=N/NC(=N)N)n43)c2C=O)cc1`
1.2 °C

Same for `N=C(N)N/N=C/c1c(-c2ccc(Cl)cc2)nc2n1ccc1nc(-c3ccc(Cl)cc3)c(/C=N/NC(=N)N)n12`
2.9 °C

====

pKd values for the molecules below.
molecular target: Quadruplex DNA; assay: Binding affinity toc-myc G4 quadruplex d(TTAGGGTTAGGGTTAGGGTTAGGGTT) DNA (unknown origin) assessed as dissociation constant by Microscale thermophoresis analysis; format: nucleic-acid assay
Conceptually, pKd converts a concentration in mol/L into minus its log10.

The examples below pair each entry with its known result.
smi=Clc1ccc(-c2nc3n(ccc4nc(-c5ccccc5)c(/C=N/NC5=NCCN5)n43)c2/C=N/NC2=NCCN2)cc1 measured_number=5.92
smi=N=C(N)N/N=C/c1c(-c2ccccc2)nc2ccn3c(C=O)c(-c4ccccc4)nc3n12 measured_number=5.15
smi=Cc1ccc(-c2nc3ccn4c(/C=N/NC(=N)N)c(-c5ccccc5)nc4n3c2/C=N/NC(=N)N)cc1 measured_number=5.82

Give its pKd value. Item: `OCc1c(-c2ccccc2)nc2n1ccc1nc(-c3ccccc3)c(/C=N/NC3=NCCN3)n12`
4.43

Same for `N=C(N)N/N=C/c1c(-c2ccccc2)nc2ccn3c(CO)c(-c4ccccc4)nc3n12`
5.10

Same for `Clc1ccc(-c2nc3ccn4c(/C=N/NC5=NCCN5)c(-c5ccccc5)nc4n3c2/C=N/NC2=NCCN2)cc1`
5.52

====

assay: Stabilization of F-c-kit1-T (unknown origin) assessed as difference in melting temperature t1/2 in presence of d(CGC GAA TTC GCG TIT CGC GAA TTC GCG) DNA hairpin (unknown origin) measured at 1:50 G4 to hairpin DNA ratio by FRET assay
measurement.kind: ΔTm

smi=OCc1c(-c2ccccc2)nc2n1ccc1nc(-c3ccccc3)c(/C=N/NC3=NCCN3)n12 measurement_kind=ΔTm result="8.4 °C"

Give its ΔTm value. Item: `Cc1ccc(-c2nc3ccn4c(/C=N/NC5=NCCN5)c(-c5ccccc5)nc4n3c2/C=N/NC2=NCCN2)cc1`
20.2 °C

Same for `N=C(N)N/N=C/c1c(-c2ccccc2)nc2ccn3c(CO)c(-c4ccccc4)nc3n12`
12.1 °C

Same for `Clc1ccc(-c2nc3ccn4c(/C=N/NC5=NCCN5)c(-c5ccccc5)nc4n3c2/C=N/NC2=NCCN2)cc1`
19.6 °C

Same for `Clc1ccc(-c2nc3n(ccc4nc(-c5ccccc5)c(/C=N/NC5=NCCN5)n43)c2/C=N/NC2=NCCN2)cc1`
23.8 °C

Same for `Cc1ccc(-c2nc3ccn4c(/C=N/NC(=N)N)c(-c5ccccc5)nc4n3c2/C=N/NC(=N)N)cc1`
19.2 °C

Same for `N=C(N)N/N=C/c1c(-c2ccccc2)nc2ccn3c(C=O)c(-c4ccccc4)nc3n12`
22.2 °C
